Target: Voltage-gated potassium channel subunit beta-2 (Rattus norvegicus) (UniProt P62483)
Sequence (P62483 whole entry, looked up): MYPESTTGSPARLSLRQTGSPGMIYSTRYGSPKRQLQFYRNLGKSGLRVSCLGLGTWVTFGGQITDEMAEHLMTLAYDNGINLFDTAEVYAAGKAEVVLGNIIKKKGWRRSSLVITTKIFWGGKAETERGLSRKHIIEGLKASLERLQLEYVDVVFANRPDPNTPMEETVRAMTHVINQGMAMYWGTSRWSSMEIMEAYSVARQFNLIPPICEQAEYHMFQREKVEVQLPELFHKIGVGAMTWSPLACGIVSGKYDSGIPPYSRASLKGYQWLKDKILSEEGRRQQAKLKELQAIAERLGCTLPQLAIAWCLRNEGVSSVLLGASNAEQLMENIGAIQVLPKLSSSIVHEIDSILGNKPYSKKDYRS
Test: KvBeta enzyme negative modulators, primary screen, biochemical, NADPH fluorescence (AID 622);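 note: slope of raw intensity against log time taken from 70 to 1610 s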
Details: recombinant KvBeta, 4-cyanobenzaldehyde reduction, at 10 µM, hits give high values
This section presents compounds with their documented fluorescence slope values.
Output: the number by itself.

Cc1cc(-c2cc(-c3ccc(Cl)cc3)nc(N)c2C#N)co1 | -0.294
COc1ccc2c(c1OC)C(=O)N1c3ccccc3SC21 (stereo unspecified) | -0.361

Exercise: Write down fluorescence slope measured for item CCOC(=O)c1c(N)sc2c1CCC1C(=O)N(C3CCCCC3)C(=O)C21 (stereo unspecified)
Key: -0.362
